Assay: in vitro
Conditions: human, pH 7.4
Assay Endpoint: Km at 1 min (µM)
Enter your answer as a number in µM; do not include the unit.

Which Km at 1 min value belongs to COC(=O)[C@H](c1ccccc1Cl)N1CCc2sc(OC(C)=O)cc2C1 [vicagrel, Vicagrel] ?
6.54

---

Target: UniProt:P22760
Sequence (P22760 1-399): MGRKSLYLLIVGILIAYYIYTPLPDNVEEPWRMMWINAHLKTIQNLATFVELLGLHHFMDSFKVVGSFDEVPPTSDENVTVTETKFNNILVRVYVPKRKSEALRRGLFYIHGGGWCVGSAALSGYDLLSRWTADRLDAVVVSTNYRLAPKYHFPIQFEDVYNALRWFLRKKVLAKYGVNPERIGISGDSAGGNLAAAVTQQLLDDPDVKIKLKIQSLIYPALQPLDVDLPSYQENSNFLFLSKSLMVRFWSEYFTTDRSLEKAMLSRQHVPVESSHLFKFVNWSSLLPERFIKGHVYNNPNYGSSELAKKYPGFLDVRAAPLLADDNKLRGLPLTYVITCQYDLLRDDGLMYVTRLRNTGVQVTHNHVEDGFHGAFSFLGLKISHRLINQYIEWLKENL
Test: Hydrolase activity by recombinant human AADAC
Conditions: human, recombinant human AADAC, pH 7.4
Assay Endpoint: microsomal CLint (µL/min/mg)
Enter your answer as a number in µL/min/mg; do not include the unit.

Which microsomal CLint value belongs to COC(=O)[C@H](c1ccccc1Cl)N1CCc2sc(OC(C)=O)cc2C1 ?
39000
